- testTarget: sGC α1/β1 heterodimer stably expressed in CHO-K1 cells (CHO-K1/sGC) (Homo sapiens, UniProt Q02108+Q02153)
- Construct: expressed in transfected cells
- assayRemarks: Cell-based sGC functional assay (CASA assay), cGMP generation by HTRF
- conditionLabel: CHO-K1/sGC cells, 1 hr at 37° C., 4P fit; presence or absence of DETA-NO not given; read-out: IP (nM) (inflection point)
Consider the following partition of reported EC50 into named classes: bottom range = under 70 nM, center range = from 70 nM up to 500 nM, top range = 500 nM and over

# molecule, cat
measured = [
    ("CC1(c2ccccc2)C(=O)Nc2nc(-c3cn4ccnc4c(Oc4ccccc4)n3)nc(N)c21 (stereo not shown) [Example 10B]", "bottom range"),
    ("CC1(c2ccc(F)cc2)C(=O)Nc2nc(-c3cn4ccnc4c(OCC4CCCC4)n3)nc(N)c21 (stereo not shown) [Example 45A]", "bottom range"),
    ("CC1(c2ccc(F)cc2)C(=O)Nc2nc(-c3cn4ccnc4c(OCCC4CC4)n3)nc(N)c21 (stereo not shown) [Example 44A]", "bottom range"),
    ("CC1(c2ccc(Cl)cc2)C(=O)Nc2nc(-c3cn4ccnc4c(Oc4cccnc4)n3)nc(N)c21 (stereo not shown) [Example 30A]", "center range"),
    ("CC1(c2ccc(Cl)cc2)C(=O)Nc2nc(-c3cn4ccnc4c(NCC4CCOCC4)n3)nc(N)c21 (stereo not shown) [Example 59A]", "top range"),
    ("CC1(c2ccc(F)cc2)C(=O)Nc2nc(-c3cn4ccnc4c(Oc4cncc(C(F)(F)F)c4)n3)nc(N)c21 (stereo not shown) [Example 21A]", "top range"),
    ("CC1(c2ccc(Cl)cc2)C(=O)Nc2nc(-c3cn4ccnc4c(NCc4ccccc4)n3)nc(N)c21 (stereo not shown) [Example 60A]", "bottom range"),
    ("CC1(c2ccc(F)cc2)C(=O)Nc2nc(-c3cn4cc(C5CC5)nc4c(Oc4cccc(F)c4)n3)nc(N)c21 (stereo not shown) [Example 38A]", "top range"),
    ("CC1(c2ccc(F)cc2)C(=O)Nc2nc(-c3cn4ccnc4c(NCC4CC(F)(F)C4)n3)nc(N)c21 (stereo not shown) [Example 53A]", "top range"),
    ("CC1(c2ccc(Cl)cc2)C(=O)Nc2nc(-c3cn4ccnc4c(OCC4CCCCO4)n3)nc(N)c21 (single isomer, unassigned; fast eluting) [Example 68A]", "center range"),
    ("CC1(c2ccccc2)C(=O)Nc2nc(-c3cn4ccnc4c(Oc4cccc(F)c4)n3)nc(N)c21 (stereo not shown)", "bottom range"),
    ("CC1(c2ccc(F)cc2)C(=O)Nc2nc(-c3cn4cc(C(F)(F)F)nc4c(Oc4cccc(F)c4)n3)nc(N)c21 (stereo not shown) [Example 35A]", "center range"),
    ("CCC1(CNc2nc(-c3nc(N)c4c(n3)NC(=O)C4(C)c3ccc(Cl)cc3)cn3ccnc23)CC1 (stereo not shown) [Example 57A]", "bottom range"),
    ("CC1(c2ccc(F)cc2)C(=O)Nc2nc(-c3cn4cc(C(F)(F)F)nc4c(Oc4ccccc4)n3)nc(N)c21 (stereo not shown) [Example 36A]", "top range"),
    ("CC1(c2ccc(F)cn2)C(=O)Nc2nc(-c3cn4ccnc4c(OCC4CC(F)(F)C4)n3)nc(N)c21 (stereo not shown) [Example 33B]", "top range"),
    ("CC1(c2ccc(Cl)cc2)C(=O)Nc2nc(-c3cn4ccnc4c(OCC4CCCOC4)n3)nc(N)c21 (single isomer, unassigned; fast eluting) [Example 66A]", "top range"),
    ("CC(C)CSc1nc(-c2nc(N)c3c(n2)NC(=O)C3(C)c2ccc(F)cc2)cn2ccnc12 (stereo not shown) [Example 63A]", "bottom range"),
    ("CC1(c2ccc(F)cc2)C(=O)Nc2nc(-c3cn4ccnc4c(OCC4CC(F)(F)C4)n3)nc(N)c21 (stereo not shown) [Example 31A]", "center range"),
    ("CC1(c2ccc(F)cc2)C(=O)Nc2nc(-c3cn4ccnc4c(Oc4ccccc4F)n3)nc(N)c21 (stereo not shown)", "bottom range"),
    ("Nc1nc(-c2cn3ccnc3c(OCC(F)(F)C(F)(F)F)n2)nc2c1C(c1ccc(F)cc1)(C1CC1)C(=O)N2 (stereo not shown) [Example 14B]", "top range"),
    ("CC1(c2ccc(Cl)cc2)C(=O)Nc2nc(-c3cn4ccnc4c(OCC(F)(F)C(F)(F)F)n3)nc(N)c21 (stereo not shown) [Example 47A]", "center range"),
    ("CCCC(C)Oc1nc(-c2nc(N)c3c(n2)NC(=O)C3(C)c2ccc(F)cc2)cn2ccnc12 (racemic) [Example 65A]", "center range"),
    ("CC1(c2ccc(F)cc2)C(=O)Nc2nc(-c3cn4ccnc4c(Oc4ccc(F)cc4F)n3)nc(N)c21 (stereo not shown) [Example 19A]", "center range"),
    ("CC1(C)C(=O)Nc2nc(-c3cn4ccnc4c(Oc4cc(F)ccc4F)n3)nc(N)c21", "top range"),
    ("CC1(c2ccc(F)cc2)C(=O)Nc2nc(-c3cn4ccnc4c(NCC4CCCCC4)n3)nc(N)c21 (stereo not shown) [Example 55A]", "bottom range"),
    ("CC1(c2ccccc2)C(=O)Nc2nc(-c3cn4ccnc4c(Oc4ccccc4F)n3)nc(N)c21 (stereo not shown)", "center range"),
]

====

% Act. (percent activation relative to Compound A) reference
- testTarget: sGC α1/β1 heterodimer stably expressed in CHO-K1 cells (CHO-K1/sGC) (Homo sapiens, UniProt Q02108+Q02153)
- Construct: expressed in transfected cells
- assayRemarks: Cell-based sGC functional assay (CASA assay), cGMP generation by HTRF
- conditionLabel: maximum cGMP production of Compound A set to 100% activation
measuredAttribute: % Act. (percent activation relative to Compound A) (%)

# molecule, testResult
data = [
    ("CC1(c2ccc(Cl)cc2)C(=O)Nc2nc(-c3cn4ccnc4c(OCC4CCCOC4)n3)nc(N)c21 (single isomer, unassigned; fast eluting) [Example 66A]", 115),
    ("CC1(c2ccc(Cl)cc2)C(=O)Nc2nc(-c3cn4ccnc4c(NCC4CCCCO4)n3)nc(N)c21 (single isomer, unassigned; slow eluting) [Example 71B]", 95),
    ("CC1(c2ccc(Cl)cc2)C(=O)Nc2nc(-c3cn4ccnc4c(NCC4CCCOC4)n3)nc(N)c21 (single isomer, unassigned; slow eluting) [Example 72B]", 94),
]

====

Emax reference
- testTarget: sGC α1/β1 heterodimer stably expressed in CHO-K1 cells (CHO-K1/sGC) (Homo sapiens, UniProt Q02108+Q02153)
- Construct: expressed in transfected cells
- Sequence (Q02108 1-690): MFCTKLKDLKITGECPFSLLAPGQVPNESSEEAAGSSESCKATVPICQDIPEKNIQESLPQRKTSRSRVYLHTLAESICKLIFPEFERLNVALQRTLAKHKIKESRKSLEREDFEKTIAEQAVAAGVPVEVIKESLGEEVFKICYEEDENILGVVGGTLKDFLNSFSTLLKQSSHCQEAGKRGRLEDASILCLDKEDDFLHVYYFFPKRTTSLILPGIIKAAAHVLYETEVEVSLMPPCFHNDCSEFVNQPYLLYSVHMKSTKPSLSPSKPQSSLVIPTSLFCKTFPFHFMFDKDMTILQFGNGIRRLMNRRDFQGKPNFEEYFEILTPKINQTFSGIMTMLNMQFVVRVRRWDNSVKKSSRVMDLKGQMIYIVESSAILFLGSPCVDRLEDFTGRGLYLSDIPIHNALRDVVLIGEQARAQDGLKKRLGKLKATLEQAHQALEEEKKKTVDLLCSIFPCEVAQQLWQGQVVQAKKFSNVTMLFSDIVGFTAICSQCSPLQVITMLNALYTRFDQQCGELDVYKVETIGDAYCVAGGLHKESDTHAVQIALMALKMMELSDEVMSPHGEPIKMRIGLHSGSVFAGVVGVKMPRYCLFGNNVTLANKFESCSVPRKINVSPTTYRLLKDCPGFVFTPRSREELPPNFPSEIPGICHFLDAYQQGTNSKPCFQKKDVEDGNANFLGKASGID
- Sequence (Q02153 1-619): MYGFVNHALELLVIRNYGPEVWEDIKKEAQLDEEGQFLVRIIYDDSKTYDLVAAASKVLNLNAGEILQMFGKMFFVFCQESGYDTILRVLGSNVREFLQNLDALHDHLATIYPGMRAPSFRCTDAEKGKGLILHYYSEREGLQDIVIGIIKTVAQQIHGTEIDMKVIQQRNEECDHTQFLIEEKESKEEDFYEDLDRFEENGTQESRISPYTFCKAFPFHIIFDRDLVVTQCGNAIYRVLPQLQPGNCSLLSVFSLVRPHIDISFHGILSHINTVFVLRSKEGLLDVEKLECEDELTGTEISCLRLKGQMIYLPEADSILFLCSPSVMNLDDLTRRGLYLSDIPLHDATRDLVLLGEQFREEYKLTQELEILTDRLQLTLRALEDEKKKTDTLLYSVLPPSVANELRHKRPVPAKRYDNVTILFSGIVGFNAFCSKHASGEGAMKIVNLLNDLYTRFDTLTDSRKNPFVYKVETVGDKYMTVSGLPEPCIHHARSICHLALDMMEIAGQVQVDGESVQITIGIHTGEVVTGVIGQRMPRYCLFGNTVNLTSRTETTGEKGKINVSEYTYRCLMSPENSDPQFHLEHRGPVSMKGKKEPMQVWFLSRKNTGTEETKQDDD
- assayRemarks: Cell-based sGC functional assay (CASA assay), cGMP generation by HTRF
- conditionLabel: CHO-K1, maximum cGMP production of Compound A set to 100% activation; read-out: % Act. (percent activation relative to Compound A)

# compound, Emax [%]
records = [
    ("CC1(c2ccc(F)cc2)C(=O)Nc2nc(-c3cn4ccnc4c(SCCC(F)(F)F)n3)nc(N)c21 (stereo not shown) [Example 64A]", 67),
    ("CC1(c2ccc(F)cc2)C(=O)Nc2nc(-c3cn4ccnc4c(OCCC4CC4)n3)nc(N)c21 (stereo not shown) [Example 44A]", 100),
    ("CC1(c2ccc(F)cc2)C(=O)Nc2nc(-c3cn4ccnc4c(OCC4CC(F)(F)C4)n3)nc(N)c21 (stereo not shown) [Example 31A]", 98),
    ("CC1(c2ccc(Cl)cc2)C(=O)Nc2nc(-c3cn4ccnc4c(OCCC4CC4)n3)nc(N)c21 (stereo not shown) [Example 50A]", 106),
    ("CC1(c2ccc(F)cc2)C(=O)Nc2nc(-c3cn4cc(C(F)(F)F)nc4c(Oc4cccc(F)c4F)n3)nc(N)c21 (stereo not shown) [Example 37A]", 83),
    ("CC1(c2ccc(F)cc2)C(=O)Nc2nc(-c3cn4ccnc4c(OC4CCCCC4)n3)nc(N)c21 (stereo not shown) [Example 22A]", 107),
    ("CC1(c2ccc(F)cc2)C(=O)Nc2nc(-c3cn4ccnc4c(OCC(F)(F)C(F)(F)F)n3)nc(N)c21 (stereo not shown)", 127),
]
